- Subject of test: recombinant human PKM2 (Homo sapiens)
- Construct: His (N); purchased R&D Systems
- Assay overview: Human PKM2 activation assay (Kinase-Glo Plus luminescent detection of generated ATP)
- Format: biochemical
- Experimental setup: recombinant human PKM2 activation; 4-parameter logistic fit; read-out: hPKM2 EC50
# EC50 annotations
Endpoint: EC50 (nM)

| Molecule | Endpoint | Assay value |
| --- | --- | --- |
| O=c1c2ccc(S(=O)(=O)c3ccccc3)cc2cnn1Cc1cc[nH]n1 [Example 68] | EC50 | 70.8 |
| Cn1ccc(Cn2ncc3cc(S(=O)(=O)c4ccccc4)ccc3c2=O)n1 [Example 60] | EC50 | 100 |
| COc1ccc(S(=O)(=O)c2ccc3c(=O)n(Cc4cccc(OC)c4F)ncc3c2)cc1 [Example 52] | EC50 | 59.7 |
| O=c1c2ccc(S(=O)(=O)c3ccccc3)cc2cnn1Cc1ccn(C2CC2)n1 [Example 73] | EC50 | 30.2 |
| COc1ccc(S(=O)(=O)c2ccc3c(=O)n(Cc4cnccc4O)ncc3c2)cc1 [Example 107] | EC50 | 585 |
| CC(c1cccnc1)n1ncc2cc(S(=O)(=O)c3ccccc3)ccc2c1=O (centres unmarked) [Example 69] | EC50 | 1170 |
| COc1cccc(Cn2ncc3cc(S(=O)(=O)c4ccccc4)ccc3c2=O)c1 [Example 81] | EC50 | 49.8 |
| COc1ccc(S(=N)(=O)c2ccc3c(=O)n(Cc4ccc(OC)nc4)ncc3c2)cc1 (racemic) [Example 137] | EC50 | 129 |
| COc1ccc(Cn2ncc3cc(S(=O)(=O)c4ccccc4F)ccc3c2=O)cn1 [Example 162] | EC50 | 83.4 |
| Cc1c[nH]nc1Cn1ncc2cc(S(=O)(=O)c3ccccc3)ccc2c1=O [Example 12] | EC50 | 63.6 |
| Cn1ccc(Cn2ncc3cc(S(=O)(=O)c4ccccc4)cc(F)c3c2=O)n1 [Example 245] | EC50 | 54.2 |
| Cn1ccc(Cn2ncc3cc(S(=O)(=O)c4cnn(CCO)c4)ccc3c2=O)n1 [Example 264] | EC50 | 204 |
| COc1ccc(Cn2ncc3cc(S(=O)(=O)c4ccc(OC(F)F)nc4)ccc3c2=O)cn1 [Example 124] | EC50 | 31.3 |
| COc1ccc(S(=O)(=O)c2ccc3c(=O)n(Cc4ccnc(O)c4)ncc3c2)cc1 [Example 3] | EC50 | 566 |
| Cc1nc(Cn2ncc3cc(S(=O)(=O)c4cn[nH]c4)ccc3c2=O)ccc1F [Example 251] | EC50 | 111 |
| COC(C)c1nc(S(=O)(=O)c2ccc3c(=O)n(Cc4cc[nH]n4)ncc3c2)cs1 (centres unmarked) [Example 351] | EC50 | 93.9 |
| Cc1[nH]nc(Cn2ncc3cc(S(=O)(=O)c4cn[nH]c4)ccc3c2=O)c1Cl [Example 314] | EC50 | 46.3 |

====

pEC50 values, listed per item
- Subject of test: recombinant human PKLR (Homo sapiens, UniProt P30613)
- Construct: His (N); purchased R&D Systems
- Sequence (P30613 whole entry): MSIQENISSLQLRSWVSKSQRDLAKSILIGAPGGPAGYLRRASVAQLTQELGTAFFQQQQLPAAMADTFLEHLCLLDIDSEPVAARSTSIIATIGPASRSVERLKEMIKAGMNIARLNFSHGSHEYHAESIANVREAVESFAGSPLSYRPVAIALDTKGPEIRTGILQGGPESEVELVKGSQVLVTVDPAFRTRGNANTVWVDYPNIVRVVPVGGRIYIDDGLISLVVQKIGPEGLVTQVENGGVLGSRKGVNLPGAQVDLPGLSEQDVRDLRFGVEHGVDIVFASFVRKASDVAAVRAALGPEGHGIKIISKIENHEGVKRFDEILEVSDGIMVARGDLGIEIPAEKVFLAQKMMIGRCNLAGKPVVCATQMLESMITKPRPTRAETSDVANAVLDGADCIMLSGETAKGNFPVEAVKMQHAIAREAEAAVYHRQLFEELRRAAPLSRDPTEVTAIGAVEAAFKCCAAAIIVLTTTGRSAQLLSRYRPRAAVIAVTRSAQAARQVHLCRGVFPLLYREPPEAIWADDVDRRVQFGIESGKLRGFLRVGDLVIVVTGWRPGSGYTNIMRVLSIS
- Assay overview: Human PKLR activation assay (Kinase-Glo Plus luminescent detection of generated ATP)
- Assay type: biochemical
- Experimental setup: activation of recombinant human PKLR; 4-parameter logistic fit; read-out: hPKLR EC50
pEC50: −log10 of the molar value.

| Compound | pEC50 |
| --- | --- |
| O=c1c2ccc(S(=O)(=O)c3cn[nH]c3)cc2cnn1Cc1ccc2occc2n1 | 8.58 |
| O=c1c2ccc(S(=O)(=O)c3cn[nH]c3)cc2cnn1Cc1cccc(C2CC2)n1 | 7.89 |
| COc1ccc(S(=O)(=O)c2ccc3c(=O)n(Cc4ncccc4O)ncc3c2)cc1 | 8.02 |
| Cn1cc(S(=O)(=O)c2ccc3c(=O)n(Cc4cc[nH]n4)ncc3c2)cn1 | 7.52 |
| COc1ccc(Cn2ncc3cc(S(=O)(=O)c4ccccc4)ccc3c2=O)cn1 | 7.80 |
| COc1ccc([S@](=N)(=O)c2ccc3c(=O)n(Cc4ccc(OC)nc4)ncc3c2)cc1 (single isomer, unassigned) | 6.62 |
| CC(O)c1nc(S(=O)(=O)c2ccc3c(=O)n(Cc4ccc5c(n4)CCO5)ncc3c2)cs1 (centres unmarked) | 8.43 |
| O=c1c2ccc(S(=O)(=O)c3cnc4occc4c3)cc2cnn1Cc1cc[nH]n1 | 8.07 |
| O=c1c2ccc(S(=O)(=O)c3cnn(CCO)c3)cc2cnn1Cc1cc[nH]n1 | 7.56 |
| O=c1c2ccc(S(=O)(=O)c3cnn(CCO)c3)cc2cnn1Cc1ccn(C2CC2)n1 | 7.41 |
| O=c1c2ccc(S(=O)(=O)c3ccc4occc4n3)cc2cnn1Cc1cc[nH]n1 | 8.31 |
| Nc1cccc(Cn2ncc3cc(S(=O)(=O)c4ccccc4)ccc3c2=O)c1 | 8.10 |
| Cc1nc(Cn2ncc3cc(S(=O)(=O)c4cn[nH]c4)ccc3c2=O)ccc1F | 7.95 |
| COc1ccc([S@@](=N)(=O)c2ccc3c(=O)n(Cc4ccc(OC)nc4)ncc3c2)cc1 (single isomer, unassigned) [Example 138] | 7.85 |
| O=c1c2ccc(S(=O)(=O)c3ccc4occc4c3)cc2cnn1Cc1cc[nH]n1 | 8.70 |
| COc1ccc(S(=O)(=O)c2ccc3c(=O)n(Cc4ccn(C5CC5)n4)ncc3c2)cc1 | 8.33 |
| COc1ccc(Cn2ncc3cc(S(=O)(=O)c4ccc(C)cc4)ccc3c2=O)cn1 | 8.19 |

====

- Subject of test: recombinant human PKM2 (Homo sapiens, UniProt P14618)
- Construct: His (N); purchased R&D Systems
- Sequence (P14618 2-531 limits assumed): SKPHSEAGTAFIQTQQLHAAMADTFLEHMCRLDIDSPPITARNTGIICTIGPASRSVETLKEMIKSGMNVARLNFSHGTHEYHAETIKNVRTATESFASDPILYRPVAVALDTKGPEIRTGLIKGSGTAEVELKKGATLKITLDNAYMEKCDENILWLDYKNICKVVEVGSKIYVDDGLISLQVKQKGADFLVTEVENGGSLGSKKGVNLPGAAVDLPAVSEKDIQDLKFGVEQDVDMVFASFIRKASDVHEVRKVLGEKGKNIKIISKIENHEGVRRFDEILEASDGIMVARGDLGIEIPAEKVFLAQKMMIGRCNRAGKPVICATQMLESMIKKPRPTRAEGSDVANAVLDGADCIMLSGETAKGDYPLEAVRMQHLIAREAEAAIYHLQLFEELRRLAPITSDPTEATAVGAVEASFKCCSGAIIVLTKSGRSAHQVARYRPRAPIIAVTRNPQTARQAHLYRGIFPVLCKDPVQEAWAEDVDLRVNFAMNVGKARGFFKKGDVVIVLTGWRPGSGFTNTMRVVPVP
- Assay overview: Human PKM2 activation assay (Kinase-Glo Plus luminescent detection of generated ATP)
- Assay type: biochemical
- Experimental setup: recombinant human PKM2 activation; 4-parameter logistic fit; read-out: hPKM2 EC50
Field: label. Allowed values: criterion met (EC50 < 200 nM) or criterion not met (EC50 >= 200 nM).

| Compound | Label class |
| --- | --- |
| C[C@@H](O)c1cccc(Cn2ncc3cc(S(=O)(=O)c4cnn(C)c4)ccc3c2=O)n1 (single isomer, unassigned) | criterion not met |
| COc1ccc(S(=O)(=O)c2ccc3c(=O)n(Cc4cc[nH]n4)ncc3c2)cn1 | criterion met |
| COc1ccc(S(=O)(=O)c2ccc3c(=O)n(Cc4ccc(OC)nc4O)ncc3c2)cc1 | criterion met |
| COc1ccc(Cn2ncc3cc(S(=O)(=O)c4cn[nH]c4)ccc3c2=O)nc1C | criterion not met |
| O=c1c2ccc(S(=O)(=O)c3ccccc3)cc2cnn1Cc1ccccc1F | criterion met |
| COc1ccc(S(=O)(=O)c2ccc3c(=O)n(Cc4cccc(N)c4)ncc3c2)cc1 | criterion met |
| COc1ccc(Cn2ncc3cc([S@@](=N)(=O)c4ccc(OC(F)F)cc4)ccc3c2=O)cn1 (single isomer, unassigned) | criterion met |

====

Reported Emax values for the following compounds.
- Subject of test: recombinant human PKM2 (Homo sapiens, UniProt P14618)
- Construct: His (N); purchased R&D Systems
- Assay overview: Human PKM2 activation assay (Kinase-Glo Plus luminescent detection of generated ATP)
- Format: biochemical
- Experimental setup: percentage activation normalised to DMSO vehicle (LOW) and 5 μM TEPP-46 (HIGH); read-out: hPKM2 Emax
Endpoint: Emax

| Compound | Endpoint | Assay value |
| --- | --- | --- |
| Cc1cn(C)nc1Cn1ncc2cc(S(=O)(=O)c3ccccc3)ccc2c1=O | Emax | 101% |
| O=c1c2ccc(S(=O)(=O)c3ccc4ccoc4c3)cc2cnn1Cc1cc[nH]n1 | Emax | 115% |
| COc1ccc(Cn2ncc3cc(S(=O)(=O)c4cccc(F)c4)ccc3c2=O)cn1 | Emax | 87.5% |
| COc1ccc(Cn2ncc3cc(S(=O)(=O)c4ccccc4F)ccc3c2=O)cn1 | Emax | 99.5% |
| Cc1cccc(Cn2ncc3cc(S(=O)(=O)c4csc([C@H](C)O)n4)ccc3c2=O)n1 (single isomer, unassigned) | Emax | 94.7% |
| COCCn1cc(S(=O)(=O)c2ccc3c(=O)n(Cc4cc[nH]n4)ncc3c2)cn1 | Emax | 113% |
| NC(=O)c1ccccc1Cn1ncc2cc(S(=O)(=O)c3ccccc3)ccc2c1=O | Emax | 88.5% |
| COc1ccc(Cn2ncc3cc(S(=O)(=O)c4csc(C(N)=O)c4)ccc3c2=O)cn1 | Emax | 93.2% |

====

Measured pEC50 of individual entries
- Subject of test: recombinant human PKM2 (Homo sapiens)
- Construct: His (N); purchased R&D Systems
- Assay overview: Human PKM2 activation assay (Kinase-Glo Plus luminescent detection of generated ATP)
- Type: biochemical
- Experimental setup: recombinant human PKM2 activation; 4-parameter logistic fit; read-out: hPKM2 EC50
pEC50: −log10 of the molar value.
Endpoint: pEC50

| Compound | Endpoint | Assay value |
| --- | --- | --- |
| CCOc1ccc(S(=O)(=O)c2ccc3c(=O)n(Cc4ccn(C)n4)ncc3c2)cc1 | pEC50 | 7.13 |
| COC(C)c1nc(S(=O)(=O)c2ccc3c(=O)n(Cc4ccc5occc5n4)ncc3c2)cs1 (stereo not shown) | pEC50 | 7.56 |
| O=c1c2ccc(S(=O)(=O)c3ccccc3)cc2cnn1Cc1ccccc1CCO | pEC50 | 6.78 |
| Cn1cc(S(=O)(=O)c2cnc3c(=O)n(Cc4cc[nH]n4)ncc3c2)cn1 | pEC50 | 6.32 |

These measurements were taken from patent US20260152487A1.
